Tested on: HepG2
Assay: cytotoxicity call (relative viability < 0.9)
Conditions: 10 µM
Among all 39,000 compounds or so, about 3,300 (8.5%) were called active. The list comes from a sample in which actives are over-represented; it also holds close analogues and randomly drawn compounds.
Give your call using only these classes: true (1) (active), false (0) (inactive)

compound	target_or_test_system	class_name
C=C(C)[C@@H]1[C@H]2OC(=O)[C@@H]1[C@]1(O)C[C@H]3O[C@]34C(=O)O[C@H]2[C@]14C	HepG2	false (0)
CO/C1=C\C(C)=C\[C@@H](C)[C@@H](O)[C@@H](C)C/C(C)=C/C=C/[C@H](OC)[C@@H]([C@@H](C)[C@@H](O)[C@H](C)C(=O)/C=C/[C@H](C)[C@H](O)C(C)C)OC1=O	HepG2	false (0)
C[C@@H](CN)CC(=O)O	HepG2	false (0)
CCn1nnnc1N	HepG2	false (0)
CC(C)(C)c1o[nH]c(=O)c1C[C@@H](N)C(=O)O	HepG2	false (0)

-- ask Please share the test call associated with COc1cc2c(cc1OC)C(C)NCC2 (stereo not given) .
-- reply false (0)

-- ask Per the records of this test, what outcome belongs to O=C(CCCN1CCC2(CC1)C(=O)N(Cc1cccc(F)c1)CN2c1ccccc1)c1ccc(F)cc1 ?
-- reply true (1)

-- ask What did the test return for COc1ccc(OC(=O)N(C)C[C@H]2OCc3ccccc3-c3c(n(C)c4ccccc34)C(=O)N([C@@H](C)CO)C[C@@H]2C)cc1 ?
-- reply false (0)

-- ask What did this assay record as the result for COc1cc2c3cc1Oc1c(OC)c(OC)cc4c1[C@@H](Cc1cccc(c1)Oc1ccc(c(O)c1)C[C@@H]3N(C)CC2)N(C)CC4 ?
-- reply false (0)

-- ask Identify the outcome logged in this assay for the compound shown: CC(=O)OCC1=C2C(=O)[O][Zn][O]C(=O)[C@@H](N)CCCC(=O)N[C@@H]3C(=O)N2[C@@H]3SC1
-- reply false (0)

-- ask Query: recorded result category for O=C(O)Cc1cnc[nH]1 in this test
-- reply false (0)

-- ask Status in this test for COc1cc2c(cc1OC)C1CC(=O)C(CC(C)C)CN1CC2 (stereo not given) ?
-- reply true (1)

-- ask Please share the test call associated with CC(C)[N+](C)(CCC(C(N)=O)(c1ccccc1)c1ccccc1)C(C)C.[I-] .
-- reply false (0)

-- ask // param item: COc1ccc2c(c1O)-c1c(OC)c(OC)cc3c1C(C2)N(C)CC3 (stereo not given) ; yields the recorded call
-- reply false (0)

-- ask Test call for this compound, please: CN1CCCN(Cc2ccc(CN)cc2)CC1
-- reply false (0)

-- ask // outcome(item) with item = CC12CCC3C(CCC4(O)CC(O)CCC34C=O)C1(O)CCC2C1=CC(=O)OC1 (stereo not given)
-- reply true (1)

-- ask I would be grateful if you could indicate the recorded call for C[C@H]1C[C@@H]2CNC[C@@H]2O1 .
-- reply false (0)
